FYI, the data here is from PubChem BioAssay AID1199.

Tested on: mouse carcinogenicity bioassay, TD50 from CPDB
assay-name: DSSTox (CPDBAS) Carcinogenic Potency Database Summary Mouse Bioassay Results
experimental-setup: TD50_Mouse_Note: TD50 is harmonic mean of more than one positive test; TargetSites_Mouse_Female: liver
Source text: The Carcinogenic Potency Database (CPDB) is a unique and widely used international resource of the results of over 6500 chronic, long-term animal cancer tests on over 1500 chemical substances. The CPDB provides easy access to the bioassay literature, with qualitative and quantitative analyses of both positive and negative experiments that have been published over the past 50 years in the general literature and by the National Cancer Institute/National Toxicology Program. […]
quantity-measured: Potency

1. Cc1ccc(N)cc1N    1.04 mmol/kg/day
2. Brc1cc(Br)c(-c2cc(Br)c(Br)cc2Br)cc1Br    0.000529 mmol/kg/day
3. ClC(Cl)=C(c1ccc(Cl)cc1)c1ccc(Cl)cc1    0.0393 mmol/kg/day
4. CC(C)(CCCOc1ccc(OCCCC(C)(C)C(=O)O)c(-c2ccccc2)c1)C(=O)O    0.125 mmol/kg/day
5. Cc1c(N(C)CS(=O)(=O)O)c(=O)n(-c2ccccc2)n1C    1.89 mmol/kg/day
6. ClC1=C(Cl)C2(Cl)C3C(Cl)C=CC3C1(Cl)C2(Cl)Cl (centres undefined)    0.00324 mmol/kg/day
7. C=CC(O)c1ccc2c(c1)OCO2 (centres undefined)    0.4 mmol/kg/day
8. CNc1ccc(N(CCO)CCO)cc1[N+](=O)[O-]    0.308 mmol/kg/day
9. CCc1ccccc1    15.1 mmol/kg/day
10. Cc1cc(O)c2c(c1O)C(=O)C13C(=C2O)C(=O)C2C(O)C1C1C(O)C3C(=O)C3=C(O)c4c(O)cc(C)c(O)c4C(=O)C321 (centres undefined)    0.0324 mmol/kg/day
11. CCn1c2ccccc2c2cc(N)ccc21    0.156 mmol/kg/day
12. CC(O)COC(C)(C)C (centres undefined)    14.1 mmol/kg/day
13. Nc1ncn[nH]1    0.301 mmol/kg/day
14. NC(=O)OCC(COC(N)=O)c1ccccc1    31.1 mmol/kg/day
15. CN(C)c1ccc(C(=O)c2ccc(N(C)C)cc2)cc1    0.313 mmol/kg/day
16. CC(=O)Nc1ccc(O)cc1    10.7 mmol/kg/day
17. ClC(Cl)Br    0.291 mmol/kg/day
18. CN(C)c1ccc(C(=N)c2ccc(N(C)C)cc2)cc1    0.206 mmol/kg/day
19. COc1ccccc1[N+](=O)[O-]    1.16 mmol/kg/day
